- Target Desc: Serotonin and norepinephrine transporters (SERT/NET) (Homo sapiens, UniProt P31645+P23975)
- Assay Protocol: Selectivity of human NET over human SERT expressed in HEK293 cells
- Type: cell-based
Recorded Endpoint: NET over SERT selectivity ratio (nM)

Structure | Target Desc | Recorded Endpoint | Reading
C#Cc1ccc([C@@H]2C[C@H]3CC[C@@H](N3)[C@H]2C(=O)OC)cc1 | Serotonin and norepinephrine transporters (SERT/NET) (Homo sapiens, UniProt P31645+P23975) | NET over SERT selectivity ratio | 1.8
C=Cc1ccc([C@@H]2C[C@H]3CC[C@@H](N3)[C@H]2C(=O)OC)cc1 | Serotonin and norepinephrine transporters (SERT/NET) (Homo sapiens, UniProt P31645+P23975) | NET over SERT selectivity ratio | 1.9
COC(=O)[C@@H]1[C@H]2CC[C@H](C[C@H]1c1ccc(I)cc1)N2 | Serotonin and norepinephrine transporters (SERT/NET) (Homo sapiens, UniProt P31645+P23975) | NET over SERT selectivity ratio | 2.1
COC(=O)[C@@H]1[C@H]2CC[C@H](C[C@H]1c1ccc(C)c(F)c1)N2 | Serotonin and norepinephrine transporters (SERT/NET) (Homo sapiens, UniProt P31645+P23975) | NET over SERT selectivity ratio | 24
COC(=O)[C@@H]1[C@H]2CC[C@H](C[C@H]1c1ccc(C)cc1)N2 | Serotonin and norepinephrine transporters (SERT/NET) (Homo sapiens, UniProt P31645+P23975) | NET over SERT selectivity ratio | 28
